This collection of values is drawn from patent US20230102590A1.

Recorded Solubility, Buffer solution values for a group of compounds are listed next.
test: Basic solubility at 25° C. in ethanol, PEG 400, propylene glycol (PG) and buffer solution; solubility ratio non-aqueous solvent / buffer solution; details: 25° C.; phosphate buffer pH 7.0
testReadout: Solubility, Buffer solution

| compound | obsValue |
| --- | --- |
| CNC(=O)c1cc(Oc2ccc(NC(=O)Nc3ccc(Cl)c(C(F)(F)F)c3)c(F)c2)ccn1 | 0.0000004174% |
| O=C1Nc2ccc(Cl)cc2[C@@](C#CC2CC2)(C(F)(F)F)O1 | 0.0007278% |
| CC1(C)O[C@@H]2C[C@H]3[C@@H]4CCC5=CC(=O)C=C[C@]5(C)[C@H]4[C@@H](O)C[C@]3(C)[C@]2(C(=O)CO)O1 [Desonide] | 0.007171% |
| COC1=CC(=O)C[C@@H](C)[C@]12Oc1c(Cl)c(OC)cc(OC)c1C2=O | 0.0007834% |
